Attribution: patent US20230398130A1

tested on: ISC-enriched organoids; assay: Primary screen, 384-well 2.5-D organoid differentiation (ENR+CD, 6 days): basal lysozyme secretion (LYZ.NS); assay type: cell-based, murine; details: Dose 2.00 uM; standard z score of FC
quantity: Z.LYZ.NS

{"compound": "CC(C)(C)c1nc(-c2cccc(NS(=O)(=O)c3c(F)cccc3F)c2F)c(-c2ccnc(N)n2)s1", "quantity": "Z.LYZ.NS", "experimental-result": "−0.006"}
{"compound": "CCCCCCCCc1ccc(CCC(N)(CO)CO)cc1.Cl [Fingolimod (FTY720) HCl]", "quantity": "Z.LYZ.NS", "experimental-result": 0.186}
{"compound": "Cc1[nH]c2ccccc2c1CCNC(=O)c1cccs1", "quantity": "Z.LYZ.NS", "experimental-result": "−0.573"}
{"compound": "CC(C)c1cc(-c2n[nH]c(=O)n2-c2ccc3c(ccn3C)c2)c(O)cc1O [Ganetespib (STA-9090)]", "quantity": "Z.LYZ.NS", "experimental-result": "−1.309"}

* * *

tested on: ISC-enriched organoids; assay: Primary screen, 384-well 2.5-D organoid differentiation (ENR+CD, 6 days): carbachol-induced lysozyme secretion (LYZ.S); format: cell-based, murine; conditions: Dose 0.08 uM; ENR+CD, 6 days; FC vs plate median
Structures can show the parent of a compound that is named as a salt.
Listing of recorded Dose.FC.LYZ.S by entry.
quantity: Dose.FC.LYZ.S (log 2 fold change)

{"molecule": "CC(C)C[C@H](NC(=O)[C@@H](NC(=O)c1cccc(-c2ccccc2)n1)[C@@H](C)O)B(O)O", "system-tested": "ISC-enriched organoids", "quantity": "Dose.FC.LYZ.S", "scale-unit": "log 2 fold change", "experimental-result": "−0.179"}
{"molecule": "COc1cccc(C=NCCN=Cc2cccc(OC)c2[O-])c1[O-].[Cl-].[Mn+3]", "system-tested": "ISC-enriched organoids", "quantity": "Dose.FC.LYZ.S", "scale-unit": "log 2 fold change", "experimental-result": 0.025}
{"molecule": "Cc1[nH]c2ccccc2c1CCNC(=O)c1cccs1", "system-tested": "ISC-enriched organoids", "quantity": "Dose.FC.LYZ.S", "scale-unit": "log 2 fold change", "experimental-result": 0.080}
{"molecule": "C[C@]12C=CC(=O)N[C@@H]1CC[C@@H]1[C@@H]2CC[C@]2(C)[C@@H](C(=O)Nc3cc(C(F)(F)F)ccc3C(F)(F)F)CC[C@@H]12 [Dutasteride]", "system-tested": "ISC-enriched organoids", "quantity": "Dose.FC.LYZ.S", "scale-unit": "log 2 fold change", "experimental-result": 0.001}
{"molecule": "COc1cccc2c1C(=O)c1c(O)c3c(c(O)c1C2=O)C[C@@](O)(C(C)=O)C[C@@H]3O[C@H]1C[C@H](N)[C@H](O)[C@H](C)O1 [Daunorubicin HCl]", "system-tested": "ISC-enriched organoids", "quantity": "Dose.FC.LYZ.S", "scale-unit": "log 2 fold change", "experimental-result": "−0.096"}
{"molecule": "COc1ccc(C[C@@H](C)NC[C@H](O)c2ccc(O)c(NC=O)c2)cc1.COc1ccc(C[C@@H](C)NC[C@H](O)c2ccc(O)c(NC=O)c2)cc1.O=C(O)/C=C/C(=O)O [Formoterol Hemifumarate]", "system-tested": "ISC-enriched organoids", "quantity": "Dose.FC.LYZ.S", "scale-unit": "log 2 fold change", "experimental-result": 0.206}
